test system: Fibroblast; assay: Multiplex assay against human fibroblast; format: toxicity, cell-based; conditions: 12 h, 10 µM, compound concentration 10 uM, replicate 2
parameter.measured: Population Tubulin-Different-Phenotype (%)
Give the value, in units of %, as a plain number.

Prompt line: I'd like to know its Population Tubulin-Different-Phenotype (%). The compound in question is `O=C(Nc1cccnn1)N1CCC(=Cc2cccc(Oc3ccc(C(F)(F)F)cn3)c2)CC1`
Response line: 4

Prompt line: I'd like to know its Population Tubulin-Different-Phenotype (%). The compound in question is COc1cc2ncnc(Nc3ccc(F)c(Cl)c3)c2cc1NC(=O)/C=C/CN1CCCCC1 [DACOMITINIB ANHYDROUS]
Response line: 16

Prompt line: I'd like to know its Population Tubulin-Different-Phenotype (%). The compound in question is `O=C(Nc1ccc(-c2ccnc(Nc3ccc(N4CCOCC4)cc3)n2)cc1)[C@@H]1CCCN1`
Response line: 44

Prompt line: I'd like to know its Population Tubulin-Different-Phenotype (%). The compound in question is `C=CCn1c(=O)c2cnc(Nc3ccc(N4CCN(C)CC4)cc3)nc2n1-c1cccc(C(C)(C)O)n1`
Response line: 35

Prompt line: I'd like to know its Population Tubulin-Different-Phenotype (%). The compound in question is `CCCS(=O)(=O)Nc1ccc(F)c(C(=O)c2c[nH]c3ncc(Cl)cc23)c1F`
Response line: 0

Prompt line: I'd like to know its Population Tubulin-Different-Phenotype (%). The compound in question is `COc1cc(N2CCN(C)CC2)ccc1Nc1ncc2c(n1)N(C)c1ccccc1C(=O)N2C`
Response line: 100

Prompt line: I'd like to know its Population Tubulin-Different-Phenotype (%). The compound in question is `Cc1cn(-c2cc(NC(=O)c3ccc(C)c(Nc4nccc(-c5cccnc5)n4)c3)cc(C(F)(F)F)c2)cn1`
Response line: 63

Prompt line: I'd like to know its Population Tubulin-Different-Phenotype (%). The compound in question is `COC(=N)c1nc2ccc3ncnc(Nc4ccc(OC)cc4F)c3c2s1`
Response line: 5

Prompt line: I'd like to know its Population Tubulin-Different-Phenotype (%). The compound in question is `Cc1ccc(C(=O)Nc2cccc(C(F)(F)F)c2)cc1Nc1nc(-c2cccnc2)nc2c1cnn2C`
Response line: 100

Prompt line: I'd like to know its Population Tubulin-Different-Phenotype (%). The compound in question is `CNC(=O)c1ccc(Nc2nc(OC3CCCC3)c3c(-c4ccc5nc(C)oc5c4)c[nH]c3n2)c(OC)c1`
Response line: 23

Prompt line: I'd like to know its Population Tubulin-Different-Phenotype (%). The compound in question is `CCN1CCN(c2ccc(Nc3cc(N(C)C(=O)Nc4c(Cl)c(OC)cc(OC)c4Cl)ncn3)cc2)CC1`
Response line: 11

Prompt line: I'd like to know its Population Tubulin-Different-Phenotype (%). The compound in question is `C=C1/C(=C\C=C2/CCC[C@]3(C)[C@@H]([C@H](C)/C=C/[C@H](C)C(C)C)CC[C@@H]23)C[C@@H](O)C[C@@H]1O`
Response line: 13

Prompt line: I'd like to know its Population Tubulin-Different-Phenotype (%). The compound in question is `COc1cccc2cc(-c3nc([C@H]4CC[C@H](C(=O)O)CC4)n4ncnc(N)c34)[nH]c12`
Response line: 6

Prompt line: I'd like to know its Population Tubulin-Different-Phenotype (%). The compound in question is `O=C1NC(=O)C(c2cnc3ccccn23)=C1c1cn2c3c(cc(F)cc13)CN(C(=O)N1CCCCC1)CC2`
Response line: 96

Prompt line: I'd like to know its Population Tubulin-Different-Phenotype (%). The compound in question is `CCOc1cc2ncc(C#N)c(Nc3ccc(OCc4ccccn4)c(Cl)c3)c2cc1NC(=O)/C=C/CN(C)C`
Response line: 42

Prompt line: I'd like to know its Population Tubulin-Different-Phenotype (%). The compound in question is `COCC(=O)NC/C=C/c1ccc2ncnc(Nc3ccc(Oc4ccc(C)nc4)c(C)c3)c2c1`
Response line: 100

Prompt line: I'd like to know its Population Tubulin-Different-Phenotype (%). The compound in question is `CCN1CCN(Cc2ccc(Nc3ncc(F)c(-c4cc(F)c5nc(C)n(C(C)C)c5c4)n3)nc2)CC1.CS(=O)(=O)O`
Response line: 100

Prompt line: I'd like to know its Population Tubulin-Different-Phenotype (%). The compound in question is `CN1CCN(C(=O)C(C)(C)c2ccc(C(=O)Nc3cn4cc(-c5cc(C(C)(C)C)cc(C(C)(C)C)c5)ccc4n3)cc2)CC1`
Response line: 23

Prompt line: I'd like to know its Population Tubulin-Different-Phenotype (%). The compound in question is `COc1ccc(S(=O)(=O)N(CCO)c2ccccc2CN(C)C/C=C/c2ccc(Cl)cc2)cc1.O=P(O)(O)O`
Response line: 55

Prompt line: I'd like to know its Population Tubulin-Different-Phenotype (%). The compound in question is `Cc1cc(C)c(S(=O)(=O)N(Cc2ccc(-c3cccc(S(C)(=O)=O)c3)cc2)Cc2ccc(C(F)(F)F)o2)c(C)c1`
Response line: 11

Prompt line: I'd like to know its Population Tubulin-Different-Phenotype (%). The compound in question is `COc1ccc(-c2ccc3c(N4CCOCC4)nc(N4C[C@@H](C)O[C@@H](C)C4)nc3n2)cc1CO`
Response line: 28

Prompt line: I'd like to know its Population Tubulin-Different-Phenotype (%). The compound in question is `CCc1cccc(CC)c1NC(=O)c1nn(C)c2c1CCc1cnc(Nc3ccc(N4CCN(C)CC4)cc3OC)nc1-2`
Response line: 23

Prompt line: I'd like to know its Population Tubulin-Different-Phenotype (%). The compound in question is `CCOc1cc(C(=O)N2CCC(N3CCN(C)CC3)CC2)ccc1Nc1ncc2c(n1)N(C1CCCC1)c1ccccc1C(=O)N2C`
Response line: 100

Prompt line: I'd like to know its Population Tubulin-Different-Phenotype (%). The compound in question is `NC(=O)c1cccc(-c2cc(Nc3ccc(OC(F)(F)F)cc3)ncn2)c1`
Response line: 33

Prompt line: I'd like to know its Population Tubulin-Different-Phenotype (%). The compound in question is CN(C)C(=O)C(CCN1CCC(O)(c2ccc(Cl)cc2)CC1)(c1ccccc1)c1ccccc1.Cl [LOPERAMIDE HYDROCHLORIDE]
Response line: 100

Prompt line: I'd like to know its Population Tubulin-Different-Phenotype (%). The compound in question is `Cn1nc(C(F)(F)F)cc1-c1cnc(N2CCc3cc(S(=O)(=O)Nc4c(F)cc(Cl)cc4F)cc(N4CCCC4=O)c32)nc1`
Response line: 10

Prompt line: I'd like to know its Population Tubulin-Different-Phenotype (%). The compound in question is `S=C(NCCCc1c[nH]cn1)NCCCN(Cc1ccc(Cl)c(Cl)c1)c1ccc(Br)cn1`
Response line: 100

Prompt line: I'd like to know its Population Tubulin-Different-Phenotype (%). The compound in question is `O=C1N/C(=N/c2ccccc2F)S/C1=C\c1ccc(C(=O)O)cc1`
Response line: 9

Prompt line: I'd like to know its Population Tubulin-Different-Phenotype (%). The compound in question is CCOC(=O)c1c(C)[nH]c2ccc3c(c12)CN1CCc2cc(OC)ccc2C1O3 (configuration not stated)
Response line: 100

Prompt line: I'd like to know its Population Tubulin-Different-Phenotype (%). The compound in question is `O=C(Nc1ccc(-n2nc(-c3cccnc3)cc2C(F)(F)F)cn1)c1ccc(-c2ccccc2)c(F)c1`
Response line: 8

Prompt line: I'd like to know its Population Tubulin-Different-Phenotype (%). The compound in question is `Cl.O=c1c2cccn2c2ccccc2n1CCCN1CCC(c2ccc(Cl)cc2)CC1`
Response line: 98

Prompt line: I'd like to know its Population Tubulin-Different-Phenotype (%). The compound in question is CN1CCC(=C2c3ccccc3CC(=O)c3sccc32)CC1.O=C(O)/C=C/C(=O)O [KETOTIFEN FUMARATE]
Response line: 95

###

tested on: Fibroblast; assay: Multiplex assay against human fibroblast; assay type: toxicity, cell-based; conditions: 12 h, 10 µM, compound concentration 10 uM, replicate 1
parameter.measured: Population Apoptotic (%)
Give the value, in units of %, as a plain number.

Prompt line: I'd like to know its Population Apoptotic (%). The compound in question is `O=C(Cc1ccc(-c2ccc(OCCN3CCOCC3)cc2)cn1)NCc1ccccc1`
Response line: 66

Prompt line: I'd like to know its Population Apoptotic (%). The compound in question is `O=C(Nc1ccc(Cl)cc1)Nc1cccc(-c2cccc(N3CCCC3)n2)c1`
Response line: 66

Prompt line: I'd like to know its Population Apoptotic (%). The compound in question is `Cc1ccc(C(=O)Nc2cccc(C(F)(F)F)c2)cc1Nc1nc(-c2cccnc2)nc2c1cnn2C`
Response line: 65

Prompt line: I'd like to know its Population Apoptotic (%). The compound in question is `CCCS(=O)(=O)Nc1ccc(F)c(C(=O)c2c[nH]c3ncc(Cl)cc23)c1F`
Response line: 65
